FYI, the data here is from patent US5439932A.

# Target Or Test System: Human squalene epoxidase (Homo sapiens)
# Construct: endogenous in cells
# Sequence (Q14534 whole entry): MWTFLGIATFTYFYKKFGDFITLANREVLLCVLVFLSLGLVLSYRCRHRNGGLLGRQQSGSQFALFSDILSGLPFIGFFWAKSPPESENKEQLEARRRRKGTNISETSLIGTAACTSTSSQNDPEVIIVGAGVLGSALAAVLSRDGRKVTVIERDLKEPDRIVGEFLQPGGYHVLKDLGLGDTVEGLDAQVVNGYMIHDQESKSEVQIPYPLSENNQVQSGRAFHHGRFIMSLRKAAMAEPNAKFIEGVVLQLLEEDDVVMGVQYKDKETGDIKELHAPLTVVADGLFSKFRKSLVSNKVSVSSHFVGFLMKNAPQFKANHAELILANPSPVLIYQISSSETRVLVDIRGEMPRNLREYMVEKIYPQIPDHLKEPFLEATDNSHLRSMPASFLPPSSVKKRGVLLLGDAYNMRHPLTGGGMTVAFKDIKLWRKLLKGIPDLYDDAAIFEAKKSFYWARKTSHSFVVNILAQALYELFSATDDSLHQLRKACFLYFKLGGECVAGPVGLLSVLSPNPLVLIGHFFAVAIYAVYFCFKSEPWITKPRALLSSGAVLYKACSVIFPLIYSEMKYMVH
# Assay Summary: Human squalene epoxidase inhibition action
# Experimental Context: solubilized squalene epoxidase fraction from human hepatoma (Hep-G2) cells; 8 μM 3H-squalene; 37° C., 60 minutes; pH 7.5; read-out: 50% inhibitory concentration (IC50)
Counter-ions that a name gives are not always drawn.
Measurement Name: IC50 (nM)
One number for each entry, in nM.

Compound | Target Or Test System | IC50 [nM]
CCN(CC#C/C=C/C(C)(C)C)Cc1ccc(COC/C=C/c2ccsc2)o1 [Example 46] | Human squalene epoxidase (Homo sapiens) | 0.4

Please give IC50, item by item, for the list that follows.
1. CCN(C/C=C/C#CC(C)(C)OC)Cc1cccc(COC/C=C/c2ccsc2)c1 [Example 7, hydrochloride]
2. CCN(C/C=C/C#CC(C)(C)CC)CCOCCOc1cccc(-c2ccsc2)c1 [Example 35, hydrochloride]

Result block:
1. 0.3
2. 0.4
